- System: T1, cynomolgus PD-1 expressed on CHO-K1 cells (cynomolgus monkey, UniProt B0LAJ3 25-288)
- T1 construct: also called CHO-K1/cynoPD-1; CHO-K1-cynoPD-1
- T1 sequence (B0LAJ3 entry or part of it limits assumed): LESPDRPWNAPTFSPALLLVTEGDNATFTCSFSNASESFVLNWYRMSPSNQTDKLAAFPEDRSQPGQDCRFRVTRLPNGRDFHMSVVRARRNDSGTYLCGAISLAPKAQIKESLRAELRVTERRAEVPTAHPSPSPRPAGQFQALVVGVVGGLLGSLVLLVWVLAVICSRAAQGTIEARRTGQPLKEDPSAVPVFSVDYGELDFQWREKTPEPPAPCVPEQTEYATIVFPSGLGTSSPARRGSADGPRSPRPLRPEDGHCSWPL
- Measurement description: FACS, CHO-K1/cynoPD-1 cells
pEC50: −log10 of the molar value.
Listing: pEC50 of selected binders
Recorded endpoint: pEC50

- mAb719 (antibody, V domains shown, murine hybridoma anti-PD-1 mAb) VH: EVKLVESGGGLVKPGGSLKLSCTASGFSFSSHLMSWVRQTPEKRLEWVAAISGGGADTYYPDSVKGRFTISRDNAKNTLYLQMRSLRSEDTALYYCTRQILAFDSWGQGTTLTVSS VL: DIQMNQSPSSLSVSLGDTITITCHASQNIYVWLNWYQQKPGNIPKLLIYKASNLHTGVPSRFSGGGSGTGFTLTISSLQPEDIATYYCQQGQSYPWTFGGGTKLEIK: 8.68
- mAb709 (antibody, V domains shown, murine hybridoma anti-PD-1 mAb) VH: EVKLVESGGGLVKPGGSLKLSCAASGFTFSFYTMSWVRQTPEKRLEWVATISGGGRDTYYPDSVKGRFTISRDNAKNTLYLHMSSLRSEDTALYYCAGQGGNYLFAYWGQGTLVTVSA VL: DIVMTQSHKFMSTSVGDSVTITCKASQDVNTVVAWYQQKPGQSLKVLISWASTRHTGVPARFTGSGSGTDYTLTISSVQAEDLALYYCQQHYTTPYTFGGGTQLEIK: 9.70
- mAb701 (antibody, V domains shown, murine hybridoma anti-PD-1 mAb) VH: EVLLVESGGGLVKPGGSLKLSCAASGFTFSSYMMSWIRQTPERRLEWVASMSGGGRDTYYPDSVKGRFTISRDNAKNTLYLQMSSLRSEDTALYYCARRGTYAMDYWGQGTSVTVSS VL: DIQMTQSPASQSASLGESVTITCLASQTIGTWLTWYQQKPGKSPQLLIYAATSLADGVPSRFSGSGSGTKFSFKISSLQAEDFVSYYCQQLYSTPWTFGGGTKLEIK: 8.42
